Molecular target: human KV 1.5 (IKur) (Homo sapiens, UniProt P22460)
Construct: expressed in transfected cells
Sequence (P22460 whole entry): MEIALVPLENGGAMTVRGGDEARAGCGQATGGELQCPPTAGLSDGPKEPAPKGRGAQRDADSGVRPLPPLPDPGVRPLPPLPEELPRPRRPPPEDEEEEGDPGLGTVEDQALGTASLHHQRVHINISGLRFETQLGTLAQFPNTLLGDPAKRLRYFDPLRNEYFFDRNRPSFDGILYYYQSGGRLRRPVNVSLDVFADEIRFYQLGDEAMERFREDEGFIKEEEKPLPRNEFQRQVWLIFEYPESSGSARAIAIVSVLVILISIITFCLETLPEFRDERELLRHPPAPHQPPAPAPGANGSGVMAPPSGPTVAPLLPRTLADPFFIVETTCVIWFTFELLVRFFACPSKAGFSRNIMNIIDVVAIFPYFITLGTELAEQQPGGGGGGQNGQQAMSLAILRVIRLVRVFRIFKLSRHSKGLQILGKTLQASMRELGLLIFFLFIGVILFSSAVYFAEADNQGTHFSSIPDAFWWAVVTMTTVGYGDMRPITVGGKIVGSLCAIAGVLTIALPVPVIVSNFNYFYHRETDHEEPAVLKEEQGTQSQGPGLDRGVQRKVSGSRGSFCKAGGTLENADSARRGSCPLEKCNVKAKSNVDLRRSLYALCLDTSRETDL
Test: block of IKur current in patch clamped L-929 cells expressing human Kv1.5
Assay type: cell-based
Settings: L929, 0.3 μM; patch clamped mammalian L-929 cells stably expressing human Kv1.5; read-out: KV1_5% Inh L929 @0.3 μM
measurement_kind: inhibition at 0.3 µM (%)
Give a bare numeral; the unit % is implied.

NS(=O)(=O)c1cncc(-c2nc(NCCOc3cnccn3)c3c(-c4ccccc4)ccn3n2)c1 has a reported inhibition at 0.3 µM of 91.6

inhibition at 0.3 µM recorded for this molecule, CC(O)c1cncc(-c2nc(NCc3ccccc3)c3c(-c4ccccc4)ccn3n2)c1 (stereo not shown) , is 93.2

response.value for NS(=O)(=O)c1cncc(-c2nc(NCC3(O)CCCCC3)c3c(-c4ccccc4)ccn3n2)c1 (field: inhibition at 0.3 µM) = 62.5

Quick note, inhibition at 0.3 µM for COc1ncc(-c2nc(NCc3ccccn3)c3c(-c4ccccc4)ccn3n2)cc1S(N)(=O)=O landed at 97.3

GET /value?item= COc1cccc(CNc2nc(-c3cncc(S(N)(=O)=O)c3)nn3ccc(-c4ccccc4)c23)n1 &field=inhibition at 0.3 µM returns 99.1

Entry NS(=O)(=O)c1cncc(-c2nc(NCc3ccccn3)c3c(-c4ccccc4F)ccn3n2)c1 , inhibition at 0.3 µM reported as 98

For record CC(C)OC(=O)Nc1cncc(-c2nc(NCc3ccccn3)c3c(-c4ccccc4)ccn3n2)c1 the listed inhibition at 0.3 µM is 95.5

###

Biological target: human KV 1.5 (IKur) (Homo sapiens)
Construct: expressed in transfected cells
Test: block of IKur current in patch clamped L-929 cells expressing human Kv1.5
Type: cell-based
Settings: L929, 0.3 μM; patch clamped mammalian L-929 cells stably expressing human Kv1.5; read-out: KV1_5% Inh L929 @0.3 μM
measurement_kind: inhibition at 0.3 µM (%)
Just the number in %, nothing appended.

inhibition at 0.3 µM reported for this compound NS(=O)(=O)c1cncc(-c2nc(NCc3c(F)cccc3F)c3c(-c4ccccc4)ccn3n2)c1 : 96

Lab note: measured inhibition at 0.3 µM of NS(=O)(=O)c1cncc(-c2nc(NCc3ccccn3)c3c(-c4ccccc4C(F)(F)F)ccn3n2)c1 was 98.5

Value of inhibition at 0.3 µM reported for the compound Cc1ncc(-c2nc(NCc3ccccn3)c3c(-c4ccccc4)ccn3n2)cc1N is 89.1

Lab book: inhibition at 0.3 µM of CC1(C)OCC(CNC(=O)c2cncc(-c3nc(NCc4ccccc4)c4c(-c5ccccc5)ccn4n3)c2)O1 (stereo not shown) noted as 96

Sure, the documented inhibition at 0.3 µM for NC(=O)CC(=O)Nc1cncc(-c2nc(NCc3ccccn3)c3c(-c4ccccc4)ccn3n2)c1 is 96.1

Looking up NC(=O)c1ccc(NC(=O)c2nc(NCc3ccccc3)c3c(-c4ccccc4)ccn3n2)cc1 , I see its inhibition at 0.3 µM listed as 90

response.value for NC(=O)c1ccccc1CNc1nc(-c2cncc(S(N)(=O)=O)c2)nn2ccc(-c3ccccc3)c12 (field: inhibition at 0.3 µM) = 62.2
